What IC50 was measured for each of the following?
# target-entity: ovine COX-1 (Ovis aries, UniProt P05979)
# Sequence (P05979 25-600): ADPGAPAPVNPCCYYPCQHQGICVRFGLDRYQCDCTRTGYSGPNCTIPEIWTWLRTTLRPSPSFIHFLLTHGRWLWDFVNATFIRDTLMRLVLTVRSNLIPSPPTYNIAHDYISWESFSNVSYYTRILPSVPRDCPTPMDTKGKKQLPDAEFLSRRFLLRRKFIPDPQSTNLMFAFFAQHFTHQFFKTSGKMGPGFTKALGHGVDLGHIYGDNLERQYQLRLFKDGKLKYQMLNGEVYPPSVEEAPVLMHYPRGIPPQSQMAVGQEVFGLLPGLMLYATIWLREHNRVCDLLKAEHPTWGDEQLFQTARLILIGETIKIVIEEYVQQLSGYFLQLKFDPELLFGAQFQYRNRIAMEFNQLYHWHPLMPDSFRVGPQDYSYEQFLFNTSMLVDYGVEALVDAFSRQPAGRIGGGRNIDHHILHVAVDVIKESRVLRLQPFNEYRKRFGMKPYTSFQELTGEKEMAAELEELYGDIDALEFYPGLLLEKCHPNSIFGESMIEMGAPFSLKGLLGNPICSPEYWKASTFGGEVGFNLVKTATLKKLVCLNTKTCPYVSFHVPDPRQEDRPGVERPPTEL
Answers are plain numbers, in µM.

Reference set, count: 8
- compound: "NNC(=O)CSc1nc2ccccc2c(=O)n1NC(=O)Cc1ccccc1 [13b]"
  target-entity: "ovine COX-1 (Ovis aries, UniProt P05979)"
  measure-name: "IC50"
  quantitative-readout: 16.9
- compound: "COc1ccc(C2N(NC(=O)C(C)c3ccc(CC(C)C)cc3)C(=O)c3ccccc3N2C)cc1 (stereo not drawn)"
  target-entity: "ovine COX-1 (Ovis aries, UniProt P05979)"
  measure-name: "IC50"
  quantitative-readout: 14.4
- compound: "COc1ccc(C2N(NC(=O)Cc3c[nH]c4ccccc34)C(=O)c3ccccc3N2C)cc1 (stereo not drawn)"
  target-entity: "ovine COX-1 (Ovis aries, UniProt P05979)"
  measure-name: "IC50"
  quantitative-readout: 11.2
- compound: "O=C(CSc1nc2ccccc2c(=O)n1NC(=O)Cc1ccccc1)NNC(=O)c1ccccc1 [14c]"
  target-entity: "ovine COX-1 (Ovis aries, UniProt P05979)"
  measure-name: "IC50"
  quantitative-readout: 15.4
- compound: "CC(C)Cc1ccc(C(C)C(=O)NN2C(=O)c3ccccc3N(C)C2c2ccc([N+](=O)[O-])cc2)cc1 (stereo not drawn)"
  target-entity: "ovine COX-1 (Ovis aries, UniProt P05979)"
  measure-name: "IC50"
  quantitative-readout: 14.7
- compound: "NNC(=O)CSc1nc2ccccc2c(=O)n1NC(=O)c1ccccc1 [13a]"
  target-entity: "ovine COX-1 (Ovis aries, UniProt P05979)"
  measure-name: "IC50"
  quantitative-readout: 10.2
- compound: "CC(C)Cc1ccc(C(C)C(=O)NN2C(=O)c3ccccc3N(C)C2c2ccc(F)cc2)cc1 (stereo not drawn)"
  target-entity: "ovine COX-1 (Ovis aries, UniProt P05979)"
  measure-name: "IC50"
  quantitative-readout: 11.8
- compound: "CC(C)Cc1ccc(C(C)C(=O)NN2C(=O)c3ccccc3N(C)C2c2ccc(Cl)cc2)cc1 (stereo not drawn)"
  target-entity: "ovine COX-1 (Ovis aries, UniProt P05979)"
  measure-name: "IC50"
  quantitative-readout: 13.3

Req: Hello, I am looking for reported IC50 with ovine COX-1 (Ovis aries, UniProt P05979) for O=C(CSc1nc2ccccc2c(=O)n1NC(=O)Cc1ccccc1)NNC(=O)c1ccc(Cl)cc1 [14d] . Could you help?
Resp: 12.6
